target: human CD33 P132A (human, UniProt P20138 18-364); experiment: flow cytometry on HEK293-T, alanine scan
Sequence (P20138 18-364 P132A limits assumed): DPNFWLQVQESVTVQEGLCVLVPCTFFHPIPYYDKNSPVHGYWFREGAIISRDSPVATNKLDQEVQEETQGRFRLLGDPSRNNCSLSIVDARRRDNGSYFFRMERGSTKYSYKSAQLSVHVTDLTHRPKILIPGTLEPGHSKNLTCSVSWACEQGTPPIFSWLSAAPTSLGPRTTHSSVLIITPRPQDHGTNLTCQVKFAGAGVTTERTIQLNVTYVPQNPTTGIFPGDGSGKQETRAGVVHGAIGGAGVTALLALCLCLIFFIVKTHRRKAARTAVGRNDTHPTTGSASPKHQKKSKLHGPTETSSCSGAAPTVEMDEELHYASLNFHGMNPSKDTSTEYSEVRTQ
Assay readout: Mean % WT Binding (% WT binding)
Provide only the numeric value, understood in % WT binding.

-- ask // Mean % WT Binding lookup, key: Refmab #1 (antibody, V domains shown, The alanine scan used IgG or Fab; also called hP67.6) VH: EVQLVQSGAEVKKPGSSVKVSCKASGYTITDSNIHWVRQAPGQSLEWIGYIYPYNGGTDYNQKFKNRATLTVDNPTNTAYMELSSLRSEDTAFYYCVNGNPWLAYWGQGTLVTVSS VL: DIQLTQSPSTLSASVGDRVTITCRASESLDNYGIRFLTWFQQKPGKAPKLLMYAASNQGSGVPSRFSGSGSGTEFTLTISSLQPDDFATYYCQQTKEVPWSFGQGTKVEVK
-- reply 107
